molecular target: eTau1b (UniProt P10636); test: relative binding affinity, method not named; eTau 1b
REPORTED_METRIC: pKd
Units for pKd: none; it is -log10 of a concentration expressed in mol/L.

The following binders have reported results that may help.
binder="humanized IPN002 variant VH1/Vk4 (antibody, V domains shown) VH: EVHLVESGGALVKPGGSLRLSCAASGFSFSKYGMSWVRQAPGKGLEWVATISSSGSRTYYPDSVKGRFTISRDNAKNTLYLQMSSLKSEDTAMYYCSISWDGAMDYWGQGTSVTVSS VL: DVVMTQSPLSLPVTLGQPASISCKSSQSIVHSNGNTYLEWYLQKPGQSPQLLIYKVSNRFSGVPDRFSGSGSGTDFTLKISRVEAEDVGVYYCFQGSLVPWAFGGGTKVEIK" meas_value=9.22
binder="humanized IPN002 variant VH4/Vk1 (antibody, V domains shown) VH: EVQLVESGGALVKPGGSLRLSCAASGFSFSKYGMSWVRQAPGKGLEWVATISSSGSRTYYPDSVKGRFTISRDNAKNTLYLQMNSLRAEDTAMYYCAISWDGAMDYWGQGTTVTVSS VL: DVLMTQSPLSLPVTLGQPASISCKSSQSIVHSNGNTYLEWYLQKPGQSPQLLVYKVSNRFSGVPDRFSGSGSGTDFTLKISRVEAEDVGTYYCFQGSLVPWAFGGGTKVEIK" meas_value=9.44

stdin: State, in one line, measured pKd of humanized IPN002 variant VH1/Vk3 (antibody, V domains shown) VH: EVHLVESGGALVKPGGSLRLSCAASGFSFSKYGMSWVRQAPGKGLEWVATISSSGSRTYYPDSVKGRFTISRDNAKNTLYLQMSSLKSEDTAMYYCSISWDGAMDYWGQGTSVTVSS VL: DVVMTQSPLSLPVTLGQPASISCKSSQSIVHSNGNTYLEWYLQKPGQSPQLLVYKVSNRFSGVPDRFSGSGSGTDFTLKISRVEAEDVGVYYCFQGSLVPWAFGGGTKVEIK
stdout: 9.23
